Exercise: state measured Inhibition of binding of PDBu to its receptor for each of the compounds provided.
System: PDBu receptor (phorboid receptor) of murine brain membranous fraction (BMF)
Experiment: PDBu binding inhibiting activity (PBIA): inhibition of 3H-PDBu binding to murine brain membranous fraction
Design: species or system murine (mouse, NFS strain)
Details: concentration 0.8 (unit not given)
Description: Pooled murine brains from approximately 2 month old mice, NFS strain, were minced with scissors, suspended in 1 mM triethanolamine-HCl, pH 7.4, and disrupted with a polytron P-10 (Brinkman). This and all subsequent steps were performed at 4° C. […] The PBIA of ligand was equated with that of PDBu by the use of the term ng equivalent calculated from a plot of [^3 H]PDBu bound versus the log molar concentration for several biologically active phorbol esters (2). […]
Numbers only, in %.

compound: CCCCC/C=C\C/C=C\C/C=C\C/C=C\CCCC(=O)OCC(O)CO (centres unmarked) [1-Monoarachidonin, 1-monoarachidonin]
measured: 95
--
compound: CCCCCC/C=C\CCCCCCCC(=O)OCC(O)CO (centres unmarked) [1-Monopalmitolein, 1-monopalmitolein]
measured: 82
--
compound: CCCCC/C=C\C/C=C\CCCCCCCC(=O)OCC(O)COC(=O)CCCCCCC/C=C\C/C=C\CCCCC [1,3-Dilinolein, reference compound]
measured: 15

I need Inhibition of binding of PDBu to its receptor for every entry listed below, if you could help.
1. CC/C=C\C/C=C\C/C=C\CCCCCCCC(=O)OCC(O)CO (centres unmarked) [1-Monolinolenin, 1-monolinolenin]
2. CCCCCCCC/C=C\CCCCCCCC(=O)OCC(O)COC(=O)CCCCCCC/C=C\CCCCCCCC [1,3-Diolein, reference compound]

[94, 11]
